The following molecules have recorded pKi on Carbonic anhydrase 7 (Homo sapiens, UniProt P43166).
Sequence (P43166 whole entry): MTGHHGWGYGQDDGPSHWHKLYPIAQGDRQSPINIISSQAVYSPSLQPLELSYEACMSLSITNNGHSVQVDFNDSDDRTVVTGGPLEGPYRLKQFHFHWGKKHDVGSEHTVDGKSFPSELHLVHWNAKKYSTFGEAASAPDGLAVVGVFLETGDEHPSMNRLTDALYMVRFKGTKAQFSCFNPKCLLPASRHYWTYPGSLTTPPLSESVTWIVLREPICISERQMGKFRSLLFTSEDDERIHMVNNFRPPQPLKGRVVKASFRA
The quantity pKi is defined as the negative base-10 logarithm of the molar concentration.

Completed entries (count: 4):
Q: // returns reported pKi for input C/C(=C\COc1ccc2ccc(=O)oc2c1)C1=CC(=O)C(C)(C)O1 [GEIPARVARIN]
Result: 5.11

Q: Could you share which pKi value was measured for COc1c2c(cc3oc(=O)ccc13)OC(C)(C)C=C2 [XANTHOXYLETIN] ?
Result: 5.20

Q: Need pKi of COc1c2c(c3ccc(=O)oc3c1/C=C/C(C)(C)O)OC(C)(C)C=C2 [AVICENNOL] , thanks.
Result: 5.05

Q: pKi for O=c1oc2c(O)c(O)cc3c(=O)oc4c(O)c(O)cc1c4c23 [ELLAGIC ACID] ?
Result: 5.06

---
Q: Name the reported pKi value associated with the molecule CCCc1cc(=O)oc2c3c(c4c(c12)OC(C)(C)C=C4)O[C@H](C)[C@@H](C)[C@H]3O [(+)-CALANOLIDE B]
Result: 5.05

---

Let's go through some recorded Ki values for Carbonic anhydrase 9 (Homo sapiens) together.
Supply the numeric figure in µM, leaving out any unit text.

Use the examples below as a reference point.
Q: // map COc1c2c(c(OC)c3oc(=O)ccc13)OC(C)(C)C=C2 to recorded Ki (system: Carbonic anhydrase 9 (Homo sapiens))
Result: 0.86

Q: # get_value(readout= Ki, system= Carbonic anhydrase 9 (Homo sapiens)) for COc1cc2oc(=O)ccc2c2c1C=CC(C)(C)O2 [ALLOXANTHOXYLETIN]
Result: 3.5

Q: Could you share what Ki was measured for COc1c2c(cc3oc(=O)ccc13)OC(C)(C)C=C2 [XANTHOXYLETIN] , tested on Carbonic anhydrase 9 (Homo sapiens)?
Result: 0.74

Q: For the record C/C(=C\Cc1cc2ccc(=O)oc2cc1O)CO , what value of Ki is listed for Carbonic anhydrase 9 (Homo sapiens)?
Result: 9.75

Q: API: value(readout= Ki, system= Carbonic anhydrase 9 (Homo sapiens), query= C/C(=C\COc1ccc2ccc(=O)oc2c1)CCC(=O)C(C)(C)O )
Result: 4.03

Q: Record lookup: for Carbonic anhydrase 9 (Homo sapiens), what Ki belongs to COc1cc2oc(=O)ccc2cc1O [ISOSCOPOLETIN] ?
Result: 7.37

More entries:
Q: Give the reported Ki for C=C(C)C(COC(=O)c1cccnc1)c1c(OC)ccc2ccc(=O)oc12 (stereo unspecified) (system: Carbonic anhydrase 9 (Homo sapiens)).
Result: 0.67

Q: Param readout = Ki; param system = Carbonic anhydrase 9 (Homo sapiens); param query = COc1ccc(-c2c3n(c4c(=O)oc5cc(O)c(OC)cc5c24)CCc2c-3cc(OC)c(OC)c2O)cc1O ; response: value
Result: 3.22

Q: What measured Ki is associated with C/C(=C\COc1ccc2ccc(=O)oc2c1)C1=CC(=O)C(C)(C)O1 [GEIPARVARIN] on Carbonic anhydrase 9 (Homo sapiens)?
Result: 0.6

Q: Form field: Ki recorded for COc1cc2c(=O)oc3c(OC)c(OC)cc4c(=O)oc(c1O)c2c34 with Carbonic anhydrase 9 (Homo sapiens) (enter value)
Result: 17.4

Q: Request - read-out Ki | tested on Carbonic anhydrase 9 (Homo sapiens) | compound CC(CCOc1ccc2ccc(=O)oc2c1)C1=CC(=O)C(C)(C)O1 (stereo unspecified)
Result: 0.89
